kcat values by entry
Substrate: O=[N+]([O-])c1ccc(O[C@@H]2O[C@H](CO)[C@@H](O)[C@H](O)[C@H]2O)cc1
Experiment: purified protein
Details: pH 10.0, glycine-NaOH, 30 °C

[
  {
    "PROTEIN": "Bgl1D (uncultured microorganism; L115N/S28T) (protein) MSLFFTFNPLEIVPTRVIGVPNHYQNYTWCNFQNGDYPFIDGIDINLIYQVKVGIPIVVRLETVATIFNILIPHLSESERDYIKRVYDYLRLDGRTSQSSYFFGPVDSQKIGLINRKYFFEWSSQMTYECLSGKVRGIAAPDKLVSEMNEIYNELMKVFNGDVSNIVNIGVN",
    "kcat": "16.5 s⁻¹"
  },
  {
    "PROTEIN": "Bgl1D (uncultured microorganism; D44E/F68L/I70M/R91G/Y37H) (protein) MSLFFTFNPLEIVPTRVIGVPNHYQNYSWCNFQNGDHPFIDGIEINLIYQVKVGIPIVVRLETVATILNMLIPHLSESERDYIKRVYDYLGLDGRTSQSSYFFGPVDSQKIGLILRKYFFEWSSQMTYECLSGKVRGIAAPDKLVSEMNEIYNELMKVFNGDVSNIVNIGVN",
    "kcat": "139 s⁻¹"
  },
  {
    "PROTEIN": "Bgl1D (uncultured microorganism) (protein) MSLFFTFNPLEIVPTRVIGVPNHYQNYSWCNFQNGDYPFIDGIDINLIYQVKVGIPIVVRLETVATIFNILIPHLSESERDYIKRVYDYLRLDGRTSQSSYFFGPVDSQKIGLILRKYFFEWSSQMTYECLSGKVRGIAAPDKLVSEMNEIYNELMKVFNGDVSNIVNIGVN",
    "kcat": "13.4 s⁻¹"
  },
  {
    "PROTEIN": "Bgl1D (uncultured microorganism; E154G/I57K/S28P) (protein) MSLFFTFNPLEIVPTRVIGVPNHYQNYPWCNFQNGDYPFIDGIDINLIYQVKVGIPKVVRLETVATIFNILIPHLSESERDYIKRVYDYLRLDGRTSQSSYFFGPVDSQKIGLILRKYFFEWSSQMTYECLSGKVRGIAAPDKLVSEMNEIYNGLMKVFNGDVSNIVNIGVN",
    "kcat": "48.1 s⁻¹"
  },
  {
    "PROTEIN": "Bgl1D (uncultured microorganism; F68L/I70M) (protein) MSLFFTFNPLEIVPTRVIGVPNHYQNYSWCNFQNGDYPFIDGIDINLIYQVKVGIPIVVRLETVATILNMLIPHLSESERDYIKRVYDYLRLDGRTSQSSYFFGPVDSQKIGLILRKYFFEWSSQMTYECLSGKVRGIAAPDKLVSEMNEIYNELMKVFNGDVSNIVNIGVN",
    "kcat": "29.4 s⁻¹"
  }
]
